Would you kindly list Ki for each of these compounds?
SUBJECT_OF_TEST: GST-Bcl-XL (Homo sapiens, UniProt Q07817)
Sequence (Q07817 whole entry): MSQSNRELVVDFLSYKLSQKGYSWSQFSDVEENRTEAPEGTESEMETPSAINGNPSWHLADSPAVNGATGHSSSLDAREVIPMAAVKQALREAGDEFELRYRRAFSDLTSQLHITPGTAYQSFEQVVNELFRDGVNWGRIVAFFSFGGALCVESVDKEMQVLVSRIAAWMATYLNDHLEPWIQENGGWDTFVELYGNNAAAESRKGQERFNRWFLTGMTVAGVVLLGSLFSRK
ASSAY_PROTOCOL: TR-FRET binding assay, GST-Bcl-XL with F-Bak peptide probe
MEASUREMENT_SETUP: TR-FRET Binding Affinity
Numbers only, in nM.

[
  {
    "COMPOUND": "CCN(C)C(=O)N1CCOC(CNc2ccc(S(=O)(=O)NC(=O)c3ccc(N4CCN(CC5=C(c6ccc(Cl)cc6)CC(C)(C)CC5)CC4)cc3Oc3cccc4[nH]cnc34)cc2[N+](=O)[O-])C1 (stereo not shown) [Example 507]",
    "MEAS_VALUE": 33.3
  },
  {
    "COMPOUND": "O=C(NS(=O)(=O)c1cnc(OCC2(F)CCOCC2)c(Cl)c1)c1ccc(N2CCN(CC3=C(c4ccc(Cl)cc4)CCC(F)(F)C3)CC2)cc1Oc1cccc2[nH]ncc12 [Example 521]",
    "MEAS_VALUE": 4.67
  },
  {
    "COMPOUND": "CC1(C)CCC(CN2CCN(c3ccc(C(=O)NS(=O)(=O)c4ccc(NC[C@H]5CC[C@](C)(O)CC5)c([N+](=O)[O-])c4)c(Oc4cccc5[nH]ncc45)c3)CC2)=C(c2ccc(Cl)cc2)C1 [Example 525]",
    "MEAS_VALUE": 19
  },
  {
    "COMPOUND": "CC1(C)CCC(CN2CCN(c3ccc(C(=O)NS(=O)(=O)c4cnc(OCCC5CCCO5)c(Cl)c4)c(Oc4cccc5[nH]ncc45)c3)CC2)=C(c2ccc(Cl)cc2)C1 (stereo not shown) [Example 461]",
    "MEAS_VALUE": 3.65
  },
  {
    "COMPOUND": "CC1(C)CCC(CN2CCN(c3ccc(C(=O)NS(=O)(=O)c4cnc(OCC5(F)CCOCC5)c(F)c4)c(Oc4cccc5[nH]cnc45)c3)CC2)=C(c2ccc(Cl)cc2)C1 [Example 442]",
    "MEAS_VALUE": 33.6
  },
  {
    "COMPOUND": "CC1(C)CCC(CN2CCN(c3ccc(C(=O)NS(=O)(=O)c4cnc(OCC5CCc6nccn6C5)c(Cl)c4)c(Oc4cccc5[nH]ncc45)c3)CC2)=C(c2ccc(Cl)cc2)C1 (stereo not shown) [Example 536]",
    "MEAS_VALUE": 22.2
  },
  {
    "COMPOUND": "CC1(C)CCC(CN2CCN(c3ccc(C(=O)NS(=O)(=O)c4cnc(OCC5(F)CCOCC5)c(Cl)c4)c(Oc4cccc5[nH]cnc45)c3)CC2)=C(c2ccc(Cl)cc2)C1 [Example 443]",
    "MEAS_VALUE": 19.4
  },
  {
    "COMPOUND": "CO[C@H]1CC[C@H](CNc2ccc(S(=O)(=O)NC(=O)c3ccc(N4CCN(CC5=C(c6ccc(Cl)cc6)CC(C)(C)CC5)CC4)cc3Oc3cccc4[nH]ncc34)cc2[N+](=O)[O-])CC1 [Example 446]",
    "MEAS_VALUE": 19.3
  }
]

Need Ki for each of these compounds.
1. CC1(C)CCC(CN2CCN(c3ccc(C(=O)NS(=O)(=O)c4ccc(NCC5CCC(F)(F)CC5)c([N+](=O)[O-])c4)c(Oc4cccc5[nH]cnc45)c3)CC2)=C(c2ccc(Cl)cc2)C1 [Example 456]
2. CC1(C)CCC(CN2CCN(c3ccc(C(=O)NS(=O)(=O)c4cnc(OC[C@@H]5CCN(C(CF)CF)C5)c(Cl)c4)c(Oc4cccc5[nH]ncc45)c3)CC2)=C(c2ccc(Cl)cc2)C1 [Example 444]

Result block:
1. 0.54
2. 81.5
